# key: entry, value: normalised response
System: HCC1937
Test: normalised response (% of control), CellTox Green; higher = less cell death (100 = DMSO, 0 = benzethonium chloride kill control)
Conditions: incubation time: 72 h
API: value field is a number in %; no unit string.

CCCCCOC(=O)Nc1nc(=O)n([C@@H]2O[C@H](C)[C@@H](O)[C@H]2O)cc1F [Capecitabine] (100 nM); 103

Prompt: Kindly indicate its recorded normalised response. Item: CN1CCc2c(c3ccccc3n2Cc2ccc(C(=O)NO)cc2)C1 [Tubastatin A] (1000 nM)
Completion: 98

Prompt: Kindly indicate its recorded normalised response. Item: O=C(c1cc(Cc2n[nH]c(=O)c3ccccc23)ccc1F)N1CCN(C(=O)C2CC2)CC1 [Olaparib] (100 nM)
Completion: 94.9

Prompt: Kindly indicate its recorded normalised response. Item: C[C@@H]1C[C@H]2[C@@H]3CCC4=CC(=O)C=C[C@]4(C)[C@@]3(F)[C@@H](O)C[C@]2(C)[C@@]1(O)C(=O)CO [Dexamethasone] (100 nM)
Completion: 68

###

Tested on: MDA-MB-468
Assay: normalised viability (% of control), CellTiter-Blue; higher = more viable cells (about 100 = DMSO control)
Settings: 10 nM; incubation time: 72 h
# key: entry, value: normalised viability
API: value field is a number in %; no unit string.

Prompt: GET normalised viability where system = MDA-MB-468 and item = O=NN(CCCl)C(=O)NC1CCCCC1
Completion: 100

Prompt: GET normalised viability where system = MDA-MB-468 and item = Cc1c(N)nc([C@H](CC(N)=O)NC[C@H](N)C(N)=O)nc1C(=O)N[C@H](C(=O)N[C@H](C)[C@@H](O)[C@H](C)C(=O)N[C@H](C(=O)NCCc1nc(-c2nc(C(=O)NCCC[S+](C)C)cs2)cs1)[C@@H](C)O)[C@@H](OC1OC(CO)C(O)C(O)C1OC1OC(CO)C(O)C(OC(N)=O)C1O)c1cnc[nH]1 (some centres undefined)
Completion: 94.6

Prompt: GET normalised viability where system = MDA-MB-468 and item = Cc1c(C(=O)Nc2ccc(N3C[C@@H](C)O[C@@H](C)C3)nc2)cccc1-c1ccc(OC(F)(F)F)cc1
Completion: 109

Prompt: GET normalised viability where system = MDA-MB-468 and item = C[C@@H](CN1CC(=O)NC(=O)C1)N1CC(=O)NC(=O)C1
Completion: 101

###

# key: entry, value: drug sensitivity score
System: CAL-148
Assay: drug sensitivity score (DSS), CellTox Green (DSS (AUC-based score)); higher = stronger drug effect (viability inhibition or cytotoxicity); extreme values may be limits of the assay
Conditions: incubation time: 72 h
// keep it numeric: no unit symbol after the value

Recorded drug sensitivity score, per entry:
Cn1cc(C[C@@H](N)C(=O)O)c2ccccc21; 0
Cc1c(N)nc([C@H](CC(N)=O)NC[C@H](N)C(N)=O)nc1C(=O)N[C@H](C(=O)N[C@H](C)[C@@H](O)[C@H](C)C(=O)N[C@H](C(=O)NCCc1nc(-c2nc(C(=O)NCCC[S+](C)C)cs2)cs1)[C@@H](C)O)[C@@H](OC1OC(CO)C(O)C(O)C1OC1OC(CO)C(O)C(OC(N)=O)C1O)c1cnc[nH]1 (stereo partly specified); 8.42
CN1CCc2c(c3ccccc3n2Cc2ccc(C(=O)NO)cc2)C1; 0
CC[C@@H]1C(=O)N(C)c2cnc(Nc3ccc(C(=O)N[C@H]4CC[C@H](N5CCN(CC6CC6)CC5)CC4)cc3OC)nc2N1C(C)C; 0
COc1cc2c(Oc3ccc(NC(=O)C4(C(=O)Nc5ccc(F)cc5)CC4)cc3F)ccnc2cc1OCCCN1CCOCC1; 1.71

Prompt: Kindly indicate its recorded drug sensitivity score. Item: CC/C(=C(\c1ccccc1)c1ccc(OCCN(C)C)cc1)c1ccccc1
Completion: 0
